Ref: patent US20210317092A1

Target: human Bradykinin B1 receptor (Homo sapiens, UniProt P46663)
Construct: host or cells: CHO-K1
Sequence (P46663 1-353): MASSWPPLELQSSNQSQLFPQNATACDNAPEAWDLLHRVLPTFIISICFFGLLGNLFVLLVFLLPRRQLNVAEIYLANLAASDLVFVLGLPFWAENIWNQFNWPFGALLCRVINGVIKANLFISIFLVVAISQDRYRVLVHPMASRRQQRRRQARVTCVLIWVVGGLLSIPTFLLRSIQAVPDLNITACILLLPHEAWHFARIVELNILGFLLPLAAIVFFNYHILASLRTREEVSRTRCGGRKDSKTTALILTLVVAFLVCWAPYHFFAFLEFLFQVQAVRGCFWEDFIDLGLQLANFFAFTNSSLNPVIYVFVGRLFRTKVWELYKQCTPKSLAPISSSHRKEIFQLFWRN
Assay: Calcium flux Assay (FLIPR) with recombinant CHO-K1 cells expressing human Bradykinin B1 receptor, in presence (hB1 IC50) or absence (hB1 free IC50) of 0.1% BSA
Assay type: cell-based
Conditions: in absence of 0.1% BSA, read-out: hB1 free IC50
Exercise: state measured IC50 for each of the molecules provided.
Supply the numeric figure in nM, leaving out any unit text.

Consider the molecule CCc1ccn(-c2ccc(NC(=O)C3(c4ccc(C(F)(F)F)cc4F)CC3)cc2-c2nnn[nH]2)n1 [Example 372] and give its recorded IC50. 31.1

Consider the molecule CCOc1ncc(-c2ccc(NC(=O)C3(c4cccc(Cl)c4)CC3)cc2-c2nnn[nH]2)cc1Cl [Example 328] and give its recorded IC50. 13.5

Consider the molecule Cc1ccc(-c2ccc(NC(=O)C3(c4ccc(C(F)(F)F)cc4F)CC3)cc2-c2nnn[nH]2)cn1 [Example 209] and give its recorded IC50. 2.96

Consider the molecule CC(C)(C)c1cn(-c2ccc(NC(=O)C3(c4cccc(Cl)c4)CC3)cc2-c2nnn[nH]2)cn1 [Example 400] and give its recorded IC50. 25.4

---

Target: human Bradykinin B1 receptor (Homo sapiens, UniProt P46663)
Construct: host or cells: CHO-K1
Experiment: Calcium flux Assay (FLIPR) with recombinant CHO-K1 cells expressing human Bradykinin B1 receptor, in presence (hB1 IC50) or absence (hB1 free IC50) of 0.1% BSA
Assay type: cell-based
Conditions: in presence of 0.1% BSA, read-out: hB1 IC50
pIC50: −log10 of the molar value.
Short version: pIC50 at least 7 is Met, less is Not met.

Quick check: does O=C(Nc1ccc(-c2ccc(N3CCOCC3)cc2)c(-c2nnn[nH]2)c1)C1(c2cccc(Cl)c2)CC1 have pIC50 greater than or equal to 7? Not met

Quick check: does COc1ccc(-c2ccc(NC(=O)C3(c4ccccc4)CC3(C)C)cc2-c2nnn[nH]2)cc1OC (stereo not shown) have pIC50 greater than or equal to 7? Not met

Quick check: does COc1ccc(C2(C(=O)Nc3ccc(-c4ccc(OC)c(OC)c4)c(-c4nnn[nH]4)c3)CC2)cc1F have pIC50 greater than or equal to 7? Not met

Quick check: does CCOc1ccc(-c2ccc(NC(=O)C3(c4ccc(C(F)(F)F)cc4F)CC3)cc2-c2nnn[nH]2)cn1 have pIC50 greater than or equal to 7? Met

Quick check: does O=C(Nc1ccc(-c2ccnc(C(F)(F)F)c2)c(-c2nnn[nH]2)c1)C1(c2cccc(Cl)c2)CC1 have pIC50 greater than or equal to 7? Not met

Quick check: does COc1ncc(-c2ccc(NC(=O)C3(c4cccc(Cl)c4)CC3)cc2-c2nnn[nH]2)cn1 have pIC50 greater than or equal to 7? Not met

---

Target: human Bradykinin B1 receptor (Homo sapiens)
Construct: host or cells: CHO-K1
Experiment: Calcium flux Assay (FLIPR) with recombinant CHO-K1 cells expressing human Bradykinin B1 receptor, in presence (hB1 IC50) or absence (hB1 free IC50) of 0.1% BSA
Assay type: cell-based
Settings: in absence of 0.1% BSA, read-out: hB1 free IC50
IC50 under 20 nM gets Satisfied, anything at or over 20 nM gets Not satisfied.

# TODO verify IC50 < 20 nM strictly for this molecule: CCOc1ncc(-c2ccc(NC(=O)C3(c4cccc(Cl)c4F)CC3)cc2-c2nnn[nH]2)cn1 Not satisfied

# TODO verify IC50 < 20 nM strictly for this molecule: CC(C)(C)c1ccn(-c2ccc(NC(=O)C3(c4ccc(C(F)(F)F)cc4F)CC3)cc2-c2nnn[nH]2)n1 Not satisfied

# TODO verify IC50 < 20 nM strictly for this molecule: Cc1ccc(C2(C(=O)Nc3ccc(-c4ccc(C(F)(F)F)nc4)c(-c4nnn[nH]4)c3F)CC2)c(F)c1 Not satisfied

# TODO verify IC50 < 20 nM strictly for this molecule: CCOc1ncc(-c2ccc(NC(=O)C3(c4cccc(Cl)c4F)CC3)cc2-c2nnn[nH]2)cc1C(F)(F)F Not satisfied

# TODO verify IC50 < 20 nM strictly for this molecule: CCCc1cccc(C2(C(=O)Nc3ccc(-c4ccc(OCC)nc4)c(-c4nnn[nH]4)c3)CC2)c1 Satisfied

# TODO verify IC50 < 20 nM strictly for this molecule: CCc1cnn(-c2ccc(NC(=O)C3(c4ccc(OC(F)(F)F)cc4F)CC3)cc2-c2nnn[nH]2)c1 Satisfied

# TODO verify IC50 < 20 nM strictly for this molecule: O=C(Nc1ccc(-c2ccc(C(F)F)nc2)c(-c2nnn[nH]2)c1)C1(c2ccc(F)c(F)c2)CC1 Not satisfied

---

Exercise: state measured pIC50 for each of the molecules provided.
Biological target: human Bradykinin B1 receptor (Homo sapiens, UniProt P46663)
Construct: host or cells: CHO-K1
Experiment: Calcium flux Assay (FLIPR) with recombinant CHO-K1 cells expressing human Bradykinin B1 receptor, in presence (hB1 IC50) or absence (hB1 free IC50) of 0.1% BSA
Assay type: cell-based
Conditions: in absence of 0.1% BSA, read-out: hB1 free IC50
API: returns pIC50 as number; meaning -log10 of concentration in mol/L.

Consider the molecule O=C(Nc1ccc(-c2ccc(C(F)(F)F)nc2)c(-c2nnn[nH]2)c1)C1(c2ccc(F)cc2F)CC1 and give its recorded pIC50. 6.70

Consider the molecule O=C(Nc1ccc(-c2cc(F)cc(C(F)(F)F)c2)c(-c2nnn[nH]2)c1)C1(c2ccc(C(F)(F)F)cc2F)CC1 and give its recorded pIC50. 7.11

Consider the molecule COc1ccc(-c2c(F)cc(NC(=O)C3(c4cccc(Cl)c4)CC3)cc2-c2nnn[nH]2)cc1OC and give its recorded pIC50. 7.96

Consider the molecule O=C(Nc1ccc(-c2ccnc(C(F)(F)F)c2)c(-c2nnn[nH]2)c1)C1(c2ccc(C(F)(F)F)cc2F)CC1 and give its recorded pIC50. 7.06

Consider the molecule O=C(Nc1ccc(-c2ccnc(C(F)(F)F)c2)c(-c2nnn[nH]2)c1)C1(c2ccc(Cl)cc2F)CC1 and give its recorded pIC50. 6.67

Consider the molecule CCC1CCN(c2ccc(NC(=O)C3(c4ccc(F)c(F)c4)CC3)cc2-c2nnn[nH]2)C1=O (centres unmarked) and give its recorded pIC50. 5.67

Consider the molecule CCOc1ccc(-c2ccc(NC(=O)C3(c4cc(Cl)ccc4F)CC3)cc2-c2nnn[nH]2)cn1 and give its recorded pIC50. 7.67

Consider the molecule O=C(Nc1ccc(-n2cc(C(F)(F)F)nn2)c(-c2nnn[nH]2)c1)C1(c2ccc(C(F)(F)F)cc2F)CC1 and give its recorded pIC50. 6.38

Consider the molecule O=C(Nc1ccc(-c2cc3ccccc3s2)c(-c2nnn[nH]2)c1)C1(c2ccc(C(F)(F)F)cc2F)CC1 and give its recorded pIC50. 7.83

Consider the molecule Cc1ccc(C2(C(=O)Nc3ccc(-n4cnc(C(F)(F)F)c4)c(-c4nnn[nH]4)c3)CC2)c(F)c1 and give its recorded pIC50. 7.21

Consider the molecule CCOc1ccc(-c2ccc(NC(=O)C3(C(F)(F)F)CC3)cc2-c2nnn[nH]2)cn1 and give its recorded pIC50. 6.34

Consider the molecule CC(F)(F)c1ccc(-c2ccc(NC(=O)C3(c4ccc(C(F)(F)F)cc4F)CC3)cc2-c2nnn[nH]2)cn1 and give its recorded pIC50. 8.22

Consider the molecule CCc1cnn(-c2ccc(NC(=O)C3(c4ccc(C)cc4F)CC3)cc2-c2nnn[nH]2)c1 and give its recorded pIC50. 7.22

Consider the molecule Cc1ccc(-c2c(F)cc(NC(=O)C3(c4cccc(Cl)c4)CC3)cc2-c2nnn[nH]2)cn1 and give its recorded pIC50. 8.09

Consider the molecule CCOc1ccc(-c2ccc(NC(=O)C3(c4ccc(C)c(F)c4)CC3)cc2-c2nnn[nH]2)cn1 and give its recorded pIC50. 7.92

Consider the molecule O=C(Nc1ccc(-c2ccc(C(F)(F)F)nc2)c(-c2nnn[nH]2)c1)C1(c2cc(F)ccc2F)CC1 and give its recorded pIC50. 6.65

Consider the molecule CCC1CCN(c2ccc(NC(=O)C3(c4ccc(C)cc4F)CC3)cc2-c2nnn[nH]2)C1=O (centres unmarked) and give its recorded pIC50. 6.32

Consider the molecule COc1ccc(-c2ccc(NC(=O)C3(c4cccc(C(F)(F)F)c4)CC3)cc2-c2nnn[nH]2)cc1OC and give its recorded pIC50. 7.86

Consider the molecule CCOc1ccc(-c2ccc(NC(=O)C3(c4cccc(F)c4)CC3)cc2-c2nnn[nH]2)cn1 and give its recorded pIC50. 7.53

Consider the molecule O=C(Nc1ccc(-c2ccc(C(F)(F)F)nc2)c(-c2nnn[nH]2)c1)C1(c2ccc(C(F)(F)F)cc2F)CC1 and give its recorded pIC50. 7.93

Consider the molecule CCOc1ccc(-c2ccc(NC(=O)C3(c4ccc(Cl)c(F)c4)CC3)cc2-c2nnn[nH]2)cn1 and give its recorded pIC50. 8.03

Consider the molecule Cn1ncc2ccc(-c3ccc(NC(=O)C4(c5cccc(Cl)c5)CC4)cc3-c3nnn[nH]3)cc21 and give its recorded pIC50. 7.74

Consider the molecule COc1ccc(-c2ccc(NC(=O)C3(c4cccc(Cl)c4)CC3)cc2-c2nnn[nH]2)cc1OC and give its recorded pIC50. 8.47

Consider the molecule CC(C)c1cnn(-c2ccc(NC(=O)C3(c4ccc(F)c(F)c4)CC3)cc2-c2nnn[nH]2)c1 and give its recorded pIC50. 7.41

Consider the molecule O=C(Nc1ccc(-c2ccnc(C(F)F)c2)c(-c2nnn[nH]2)c1)C1(c2ccc(C(F)(F)F)cc2F)CC1 and give its recorded pIC50. 7.45

Consider the molecule Cc1nc(C(F)(F)F)nn1-c1ccc(NC(=O)C2(c3cccc(Cl)c3)CC2)cc1-c1nnn[nH]1 and give its recorded pIC50. 6.17

Consider the molecule O=C(Nc1ccc(-n2cc(Cl)cn2)c(-c2nnn[nH]2)c1)C1(c2ccc(OC(F)(F)F)cc2F)CC1 and give its recorded pIC50. 7.79

Consider the molecule CCC(F)(F)c1ccc(-c2ccc(NC(=O)C3(c4ccc(C)cc4F)CC3)cc2-c2nnn[nH]2)cn1 and give its recorded pIC50. 7.80

Consider the molecule CCOc1ccc(-c2ccc(NC(=O)C3(c4cccc(Cl)c4F)CC3)cc2-c2nnn[nH]2)cn1 and give its recorded pIC50. 7.86
